test system: Human immunodeficiency virus; test: Inhibition of HIV reverse transcriptase activity at 10 ug/ml incubated at 37 degC for 1 hr by ELISA RT assay
EXPERIMENTAL READOUT: inhibition (%)
The reply should contain only the number, in %.

Q: Looking for the measured inhibition of COc1ccc(/C=C/C(=O)C2=C(/C=C/c3ccc(OC)cc3)N=C3SC=C(C)N3C2c2ccccc2)cc1 (centres undefined) , can you help?
Result: 40.6

Q: Next entry: COc1ccc(C2C(C(=O)/C=C/c3cccs3)=C(/C=C/c3cccs3)N=C3SC=C(C)N32)cc1 (centres undefined)
Result: 47.7

Q: Next entry: CC1=CSC2=NC(/C=C/c3ccccc3)=C(C(=O)/C=C/c3ccccc3)C(c3ccc(Cl)cc3)N12 (centres undefined)
Result: 23.6

Q: Next entry: "Cc1ccnc2c1NC(=O)c1cccnc1N2C1CC1"
Result: 97.9

###

system: Human immunodeficiency virus; test: Inhibition of HIV reverse transcriptase activity at 100 ug/ml incubated at 37 degC for 1 hr by ELISA RT assay
EXPERIMENTAL READOUT: inhibition

Q: Looking for the measured inhibition of COc1ccc(C2C(C(=O)/C=C/c3ccccc3)=C(/C=C/c3ccccc3)N=C3SC=C(C)N32)cc1 (configuration not stated) , can you help?
Result: 48.6%

Q: Next entry: CC1=CSC2=NC(/C=C/c3ccccc3Cl)=C(C(=O)/C=C/c3ccccc3Cl)C(c3ccc(Cl)cc3)N12 (configuration not stated)
Result: 26.1%

Q: Next entry: CC1=CSC2=NC(/C=C/c3ccc(Br)cc3)=C(C(=O)/C=C/c3ccc(Br)cc3)C(c3ccccc3)N12 (configuration not stated)
Result: 55.4%

Q: Next entry: COc1ccc(/C=C/C(=O)C2=C(/C=C/c3ccc(OC)cc3)N=C3SC=C(C)N3C2c2cc(OC)c(OC)c(OC)c2)cc1 (configuration not stated)
Result: 51.3%

Q: Next entry: COc1ccc(C2C(C(=O)/C=C/c3ccc(F)cc3)=C(/C=C/c3ccc(F)cc3)N=C3SC=C(C)N32)cc1 (configuration not stated)
Result: 41.4%

Q: Next entry: COc1ccc(C2C(C(=O)/C=C/c3cccs3)=C(/C=C/c3cccs3)N=C3SC=C(C)N32)cc1 (configuration not stated)
Result: 54.4%

Q: Next entry: CC1=CSC2=NC(/C=C/c3cccc(Cl)c3)=C(C(=O)/C=C/c3cccc(Cl)c3)C(c3ccc(Cl)cc3)N12 (configuration not stated)
Result: 16.6%

###

For each record, write down the corresponding inhibition.
test system: Human immunodeficiency virus; assay: Inhibition of HIV reverse transcriptase activity at 10 ug/ml incubated at 37 degC for 1 hr by ELISA RT assay
The reply should contain only the number, in %.

Q: Looking for the measured inhibition of CC1=CSC2=NC(/C=C/c3ccccc3)=C(C(=O)/C=C/c3ccccc3)C(c3ccccc3)N12 (centres undefined) , can you help?
Result: 42.3

Q: Next entry: CC1=CSC2=NC(/C=C/c3cccc(Cl)c3)=C(C(=O)/C=C/c3cccc(Cl)c3)C(c3ccccc3)N12 (centres undefined)
Result: 15.4

Q: Next entry: COc1ccc(C2C(C(=O)/C=C/c3ccc(Cl)cc3)=C(/C=C/c3ccc(Cl)cc3)N=C3SC=C(C)N32)cc1 (centres undefined)
Result: 31.2

Q: Next entry: COc1ccc(C2C(C(=O)/C=C/c3ccc(F)cc3)=C(/C=C/c3ccc(F)cc3)N=C3SC=C(C)N32)cc1 (centres undefined)
Result: 9.22

###

For each record, write down the corresponding inhibition.
tested on: Human immunodeficiency virus; assay: Inhibition of HIV reverse transcriptase activity at 10 ug/ml incubated at 37 degC for 1 hr by ELISA RT assay
The reply should contain only the number, in %.

Q: Looking for the measured inhibition of COc1cc(/C=C\C2=C(C(=O)/C=C/c3cc(OC)c(OC)c(OC)c3)C(c3cc(OC)c(OC)c(OC)c3)N3C(C)=CSC3=N2)cc(OC)c1OC (configuration not stated) , can you help?
Result: 48.4

Q: Next entry: COc1cc(/C=C/C(=O)C2=C(/C=C/c3cc(OC)c(OC)c(OC)c3)N=C3SC=C(C)N3C2c2ccccc2)cc(OC)c1OC (configuration not stated)
Result: 5.69

Q: Next entry: COc1ccc(/C=C/C(=O)C2=C(/C=C/c3ccc(OC)cc3)N=C3SC=C(C)N3C2c2cc(OC)c(OC)c(OC)c2)cc1 (configuration not stated)
Result: 30.1

Q: Next entry: COc1ccc(C2C(C(=O)/C=C/c3ccc4c(c3)OCO4)=C(/C=C/c3ccc4c(c3)OCO4)N=C3SC=C(C)N32)cc1 (configuration not stated)
Result: 58.8

Q: Next entry: CC1=CSC2=NC(/C=C/c3ccccc3Cl)=C(C(=O)/C=C/c3ccccc3Cl)C(c3ccc(Cl)cc3)N12 (configuration not stated)
Result: 18

Q: Next entry: CC1=CSC2=NC(/C=C/c3ccc(Cl)cc3)=C(C(=O)/C=C/c3ccc(Cl)cc3)C(c3ccc(Cl)cc3)N12 (configuration not stated)
Result: 10.6

Q: Next entry: CC1=CSC2=NC(/C=C/c3ccc(Cl)cc3)=C(C(=O)/C=C/c3ccc(Cl)cc3)C(c3ccccc3)N12 (configuration not stated)
Result: 42.6

###

test: Selectivity index, ratio of CC50 for african green monkey Vero C1008 cells to IC50 for chloroquine sensitive Plasmodium falciparum 3D7; assay type: functional
Response field label takes Condition met when Ratio CC50/IC50 is strictly below 100 and Condition not met in all other cases.

Q: Hello, I'm reviewing records and need to know if Ratio CC50/IC50 of CC1=CSC2=NC(/C=C/c3ccccc3Cl)=C(C(=O)/C=C/c3ccccc3Cl)C(c3ccc(Cl)cc3)N12 (stereo not drawn) is below 100. Could you check?
Result: Condition met

Q: Next entry: CC1=CSC2=NC(/C=C/c3cccc(Cl)c3)=C(C(=O)/C=C/c3cccc(Cl)c3)C(c3ccc(Cl)cc3)N12 (stereo not drawn)
Result: Condition not met

Q: Next entry: COc1ccc(/C=C/C(=O)C2=C(/C=C/c3ccc(OC)cc3)N=C3SC=C(C)N3C2c2ccccc2)cc1 (stereo not drawn)
Result: Condition not met

Q: Next entry: COc1ccc(C2C(C(=O)/C=C/c3cccs3)=C(/C=C/c3cccs3)N=C3SC=C(C)N32)cc1 (stereo not drawn)
Result: Condition met

Q: Next entry: COc1ccc(C2C(C(=O)/C=C/c3ccc(F)cc3)=C(/C=C/c3ccc(F)cc3)N=C3SC=C(C)N32)cc1 (stereo not drawn)
Result: Condition met

Q: Next entry: CC1=CSC2=NC(/C=C/c3ccc(F)cc3)=C(C(=O)/C=C/c3ccc(F)cc3)C(c3ccccc3)N12 (stereo not drawn)
Result: Condition not met

Q: Next entry: CC1=CSC2=NC(/C=C/c3ccc(Br)cc3)=C(C(=O)/C=C/c3ccc(Br)cc3)C(c3ccccc3)N12 (stereo not drawn)
Result: Condition met

Q: Next entry: CC1=CSC2=NC(/C=C/c3ccccc3Cl)=C(C(=O)/C=C/c3ccccc3Cl)C(c3ccccc3)N12 (stereo not drawn)
Result: Condition not met

Q: Next entry: COc1ccc(/C=C/C(=O)C2=C(/C=C/c3ccc(OC)cc3)N=C3SC=C(C)N3C2c2cc(OC)c(OC)c(OC)c2)cc1 (stereo not drawn)
Result: Condition not met

Q: Next entry: COc1ccc(C2C(C(=O)/C=C/c3ccc4c(c3)OCO4)=C(/C=C/c3ccc4c(c3)OCO4)N=C3SC=C(C)N32)cc1 (stereo not drawn)
Result: Condition not met

Q: Next entry: COc1ccc(C2C(C(=O)/C=C/c3ccc(Cl)cc3)=C(/C=C/c3ccc(Cl)cc3)N=C3SC=C(C)N32)cc1 (stereo not drawn)
Result: Condition met

Q: Next entry: CC1=CSC2=NC(/C=C/c3ccccc3)=C(C(=O)/C=C/c3ccccc3)C(c3ccc(Cl)cc3)N12 (stereo not drawn)
Result: Condition not met

Q: Next entry: CC1=CSC2=NC(/C=C/c3ccc(Cl)cc3)=C(C(=O)/C=C/c3ccc(Cl)cc3)C(c3ccccc3)N12 (stereo not drawn)
Result: Condition met

Q: Next entry: COc1cc(/C=C/C(=O)C2=C(/C=C/c3cc(OC)c(OC)c(OC)c3)N=C3SC=C(C)N3C2c2ccccc2)cc(OC)c1OC (stereo not drawn)
Result: Condition not met

Q: Next entry: COc1cc(/C=C\C2=C(C(=O)/C=C/c3cc(OC)c(OC)c(OC)c3)C(c3cc(OC)c(OC)c(OC)c3)N3C(C)=CSC3=N2)cc(OC)c1OC (stereo not drawn)
Result: Condition met

Q: Next entry: CC1=CSC2=NC(/C=C/c3ccccc3)=C(C(=O)/C=C/c3ccccc3)C(c3ccccc3)N12 (stereo not drawn)
Result: Condition not met

Q: Next entry: CC1=CSC2=NC(/C=C/c3ccc(Cl)cc3)=C(C(=O)/C=C/c3ccc(Cl)cc3)C(c3ccc(Cl)cc3)N12 (stereo not drawn)
Result: Condition not met

Q: Next entry: CC1=CSC2=NC(/C=C/c3ccc(Br)cc3)=C(C(=O)/C=C/c3ccc(Br)cc3)C(c3ccc(Cl)cc3)N12 (stereo not drawn)
Result: Condition not met

Q: Next entry: CC1=CSC2=NC(/C=C/c3cccc(Cl)c3)=C(C(=O)/C=C/c3cccc(Cl)c3)C(c3ccccc3)N12 (stereo not drawn)
Result: Condition not met
